Reported EC50 values follow for various binders
- measured_on: T1, Cynomolgus TNFR2-His (Sino 90102-C08H) (cynomolgus monkey, UniProt A0A2K5VET2 132-366)
- T1 construct: Bought protein; also called cynomolgus monkey TNFR2; recombinant cynomolgus monkey TNFR2 protein; not shown: His tag
- T1 sequence: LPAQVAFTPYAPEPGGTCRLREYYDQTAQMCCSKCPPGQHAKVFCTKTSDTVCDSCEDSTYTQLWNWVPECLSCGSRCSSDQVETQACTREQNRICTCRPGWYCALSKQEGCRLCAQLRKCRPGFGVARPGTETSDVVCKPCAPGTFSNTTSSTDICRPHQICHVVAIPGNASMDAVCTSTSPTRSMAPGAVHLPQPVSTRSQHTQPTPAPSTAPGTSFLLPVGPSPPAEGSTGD
- test_name: ELISA, cynomolgus TNFR2-His coated

Worked cases, answers included:
[
  {
    "binder": "219-Hu3 (antibody, V domains shown, also called VH5 + VL5) VH: QVQLVQSGAEVKKPGSSVKVSCKASGYSFTNYWMNWVRQAPGQGLEWMGMIHPSDTETRLNQNFKDRVTITADKSTSTAYMELSSLRSEDTAVYYCARGEGLGAARSVSMDYWGQGTLVTVSS VL: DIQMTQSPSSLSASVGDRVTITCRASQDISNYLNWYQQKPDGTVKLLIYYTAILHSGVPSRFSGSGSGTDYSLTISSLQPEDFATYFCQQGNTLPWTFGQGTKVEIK",
    "reported_value": "12.7 ng/mL"
  },
  {
    "binder": "224-Hu7 (antibody, V domains shown, Humanized form of #224; also called VH9 + VL10) VH: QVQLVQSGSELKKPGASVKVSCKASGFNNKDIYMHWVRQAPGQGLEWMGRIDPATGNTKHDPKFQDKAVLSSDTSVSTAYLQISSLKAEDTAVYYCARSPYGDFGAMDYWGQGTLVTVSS VL: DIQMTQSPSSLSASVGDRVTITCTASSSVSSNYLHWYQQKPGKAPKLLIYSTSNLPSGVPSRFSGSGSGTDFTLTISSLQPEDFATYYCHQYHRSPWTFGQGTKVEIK",
    "reported_value": "8.39 ng/mL"
  },
  {
    "binder": "224-Hu3 (antibody, V domains shown, Humanized form of #224; also called VH9 + VL8) VH: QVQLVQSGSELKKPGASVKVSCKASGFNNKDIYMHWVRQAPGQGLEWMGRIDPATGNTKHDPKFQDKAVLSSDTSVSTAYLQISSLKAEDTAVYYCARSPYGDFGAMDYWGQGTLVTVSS VL: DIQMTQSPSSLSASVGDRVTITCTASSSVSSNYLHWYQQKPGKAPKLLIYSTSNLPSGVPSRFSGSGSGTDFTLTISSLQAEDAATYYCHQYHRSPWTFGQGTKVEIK",
    "reported_value": "9.69 ng/mL"
  },
  {
    "binder": "224-Hu6 (antibody, V domains shown, Humanized form of #224; also called VH8 + VL7) VH: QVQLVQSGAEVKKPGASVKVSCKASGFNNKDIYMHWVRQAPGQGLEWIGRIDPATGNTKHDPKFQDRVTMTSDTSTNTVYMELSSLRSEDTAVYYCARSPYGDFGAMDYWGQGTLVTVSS VL: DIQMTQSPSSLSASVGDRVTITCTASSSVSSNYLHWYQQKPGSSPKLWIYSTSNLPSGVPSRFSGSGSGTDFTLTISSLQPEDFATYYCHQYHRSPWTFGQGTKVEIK",
    "reported_value": "9.97 ng/mL"
  },
  {
    "binder": "219-Hu4 (antibody, V domains shown, also called VH6 + VL5) VH: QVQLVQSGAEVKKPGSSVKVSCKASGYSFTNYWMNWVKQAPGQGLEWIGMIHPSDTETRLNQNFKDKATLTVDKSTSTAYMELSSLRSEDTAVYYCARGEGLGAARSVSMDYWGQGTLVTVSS VL: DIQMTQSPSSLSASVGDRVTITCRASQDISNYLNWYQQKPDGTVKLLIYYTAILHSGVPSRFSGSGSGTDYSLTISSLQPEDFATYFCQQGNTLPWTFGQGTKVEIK",
    "reported_value": "12.2 ng/mL"
  }
]

Dear colleague, I am looking for the recorded EC50 of the following binder: 224-Hu4 (antibody, V domains shown, Humanized form of #224; also called VH9 + VL6) VH: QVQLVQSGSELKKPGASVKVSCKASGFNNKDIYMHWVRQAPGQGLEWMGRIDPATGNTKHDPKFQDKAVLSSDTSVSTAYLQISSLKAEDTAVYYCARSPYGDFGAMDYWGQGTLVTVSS VL: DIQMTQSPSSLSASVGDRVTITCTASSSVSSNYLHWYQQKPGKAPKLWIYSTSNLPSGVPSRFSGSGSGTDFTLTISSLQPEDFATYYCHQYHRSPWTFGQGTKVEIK 9.56 ng/mL

Do the same for 001-Hu3 (antibody, V domains shown, Humanized form of #001; also called VH1 + VL3) VH: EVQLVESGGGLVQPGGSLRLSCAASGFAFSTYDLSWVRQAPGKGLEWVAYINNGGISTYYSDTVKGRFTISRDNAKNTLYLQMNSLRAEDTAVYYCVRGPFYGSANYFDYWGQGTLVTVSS VL: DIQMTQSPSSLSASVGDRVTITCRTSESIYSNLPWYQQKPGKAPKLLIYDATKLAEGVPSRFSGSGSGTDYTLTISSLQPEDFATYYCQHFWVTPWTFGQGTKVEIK please 9.9 ng/mL
